Every entry's value here was drawn from the RNAGym collection of RNA variant scans (doi:10.1021/acssynbio.7b00057).

Quick reference: aptazyme ON/OFF ratio of the listed items.
B1: Pistol ribozyme (parent)
chain: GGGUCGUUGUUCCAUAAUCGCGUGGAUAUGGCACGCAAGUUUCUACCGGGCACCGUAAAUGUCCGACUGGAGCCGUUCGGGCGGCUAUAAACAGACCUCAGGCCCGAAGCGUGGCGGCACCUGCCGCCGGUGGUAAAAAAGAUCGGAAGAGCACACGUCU

# Variants of: B1
# assay_name: aptazyme ON/OFF ratio, guanine; higher = stronger switching; co-transcriptional cleavage with and without guanine
Keep it simple and answer with nothing but the number.

{"columns": ["change", "property_label", "observed_measurement"],
 "data": [
  ["G9A U11C C12U C13U", "aptazyme ON/OFF ratio", 1.55],
  ["U7A G9A U10G U11C C12A C13A", "aptazyme ON/OFF ratio", 1.16],
  ["U7G U8C G9A U10C C12U", "aptazyme ON/OFF ratio", 1.37],
  ["U7A U8A G9U U11A C12U C13G", "aptazyme ON/OFF ratio", 1.23],
  ["U7A U8C G9C U10A U11A C13U", "aptazyme ON/OFF ratio", 1.13],
  ["U7C U8A U10G U11A C12A C13G", "aptazyme ON/OFF ratio", 1.08],
  ["U7A G9A U10G U11C C12G", "aptazyme ON/OFF ratio", 1.08],
  ["U7G U8G U10C U11C C12U C13G", "aptazyme ON/OFF ratio", 1.34]
]}

Annotate the variant U7A U8A U10G U11G C13G with its measured aptazyme ON/OFF ratio. 1.12

Annotate the variant U7C G9A U10G U11A C12U C13U with its measured aptazyme ON/OFF ratio. 1.18

Annotate the variant U7G U8G C13U with its measured aptazyme ON/OFF ratio. 1.7

Annotate the variant U7A U8C G9A U10G with its measured aptazyme ON/OFF ratio. 1.37

Annotate the variant U7G U8C G9U U10A C12G C13A with its measured aptazyme ON/OFF ratio. 1.13
